Tested on: 102 cell lines
Assay: Oncolines viability of 120 reference anti-cancer agents
Assay type: cell-based, human
Conditions: KATO III; Signet ring cell gastric adenocarcinoma
reported-property: pIC50
Quick note: pIC50 values are minus log10 of concentrations in mol/L.

Quick one: pIC50 for COc1ccc(C2=N[C@@H](c3ccc(Cl)cc3)[C@@H](c3ccc(Cl)cc3)N2C(=O)N2CCNC(=O)C2)c(OC(C)C)c1 ? 4.53

----------
System: 115 human cancer cell lines
Experiment: Oncolines panel cell viability assay (ATPlite, 72 h)
Assay type: cell-based
Conditions: Homo sapiens, SR, Anaplastic large cell lymphoma, TP53 Mutant; read-out: IC50
reported-property: IC50 (nM)
Express your answer in nM, writing the number without its unit.

Quick one: IC50 for O=C1CCC(N2Cc3cc(Nc4noc5ccccc45)ccc3C2=O)C(=O)N1 (stereo not shown) ? 58

----------
Assay: Pharmacokinetics in female CD1 mice
Type: in vivo, mouse
Conditions: female, CD1, plasma; IV 3 mg/kg, mouse
reported-property: clearance (mL/min/kg)
Express your answer in mL/min/kg, writing the number without its unit.

Quick one: clearance for O=C1CCC(N2Cc3cc(Nc4noc5ccccc45)ccc3C2=O)C(=O)N1 (stereo not shown) ? 36.2

----------
Test: Pharmacokinetics in female CD1 mice
Format: in vivo, mouse
Details: female, CD1, plasma; PO 50 mg/kg, mouse
reported-property: bioavailability

Quick one: bioavailability for O=C1CCC(N2Cc3cc(Nc4noc5ccccc45)ccc3C2=O)C(=O)N1 (stereo not shown) ? 12%

----------
Tested on: MOLM-13 cells overexpressing FLAG-tagged wild type CK1α
Experiment: CK1α mutant rescue, CTG viability, FLAG-CK1α wild type MOLM-13
Format: cell-based, human
Settings: Homo sapiens, MOLM-13, read-out: IC50 (line fit, sigmoidal 4PL) of cell viability, CK1a
reported-property: pIC50
Quick note: pIC50 values are minus log10 of concentrations in mol/L.

Quick one: pIC50 for O=C1CCC(N2Cc3cc(Nc4noc5ccccc45)ccc3C2=O)C(=O)N1 (stereo not shown) [SJ3149] ? 8.28

----------
Tested on: 102 cell lines
Assay: Oncolines viability of 120 reference anti-cancer agents
Type: cell-based, human
Conditions: cell line A375, Amelanotic melanoma, TP53 Wild-type
reported-property: pIC50
Quick note: pIC50 values are minus log10 of concentrations in mol/L.

Quick one: pIC50 for COc1ccc(C2=N[C@@H](c3ccc(Cl)cc3)[C@@H](c3ccc(Cl)cc3)N2C(=O)N2CCNC(=O)C2)c(OC(C)C)c1 ? 5.16

----------
System: 102 cell lines
Test: Oncolines viability of 120 reference anti-cancer agents
Format: cell-based, human
Conditions: cell line ES-2, Ovarian clear cell adenocarcinoma, TP53 Mutant
reported-property: IC50

Quick one: IC50 for COc1ccc(C2=N[C@@H](c3ccc(Cl)cc3)[C@@H](c3ccc(Cl)cc3)N2C(=O)N2CCNC(=O)C2)c(OC(C)C)c1 [Nutlin-3a] ? > 31.6 µM

----------
System: NCI-H82
Experiment: cells
Set-up: Oncolines panel cell viability, ATPlite 1Step luminescence, duplicate 9-point dose response, IC50
Conditions: Homo sapiens, NCI-H82; 72 h viability; read-out: SJ3149
Method: Cell viability assays were performed as previously described. In brief, cells were seeded in a 384-well plate at an optimized density. The starting cell number was determined after 24 h incubation by adding ATPlite 1Step (Perkin Elmer, Groningen, the Netherlands) to each well and recording luminescence on an Envision multimode reader (Perkin Elmer, Waltham, MA). […]
pIC50: −log10 of the molar value.
reported-property: pIC50

I'm curious: which pIC50 was measured for O=C1CCC(N2Cc3cc(Nc4noc5ccccc45)ccc3C2=O)C(=O)N1 (stereo not shown) tested on NCI-H82? < 4.50
